tested on: HT-1197 cells; assay: Cell-based assay: anti-proliferative activity, Cell Counting Kit-8, 72 hours (HT-1197, negative control without MELK expression); settings: Homo sapiens, HT1197, 72 h, HT1197 cells (negative control), 72 hours
Counter-ions that a name gives are not always drawn.
Mark true (1) for IC50 under 2 µM, false (0) if at or over.

Q) Find out if reported IC50 for CC(=O)c1cnc2ccc(-c3ccc4cc(O)ccc4c3)cc2c1N[C@H]1CC[C@H](CN(C)C)CC1 [Example 929, hydrochloride] is less than 2 µM
A) false (0)

Q) Find out if reported IC50 for O=C(c1cnc2ccc(-c3cc(Cl)c(O)c(Cl)c3)cc2c1Nc1cncc(CCN2CCCC2)c1)C1CC1 is less than 2 µM
A) false (0)

Q) Find out if reported IC50 for NC1CCCN(c2ccc(Nc3c(C(=O)C4CC4)cnc4ccc(-c5cc(Cl)c(O)c(Cl)c5)cc34)cn2)C1 (stereo not shown) is less than 2 µM
A) true (1)

Q) Find out if reported IC50 for CCCC(=O)c1cnc2ccc(-c3cc(Cl)c(O)c(OC)c3)cc2c1Nc1ccc(CN(C)C)cc1 is less than 2 µM
A) false (0)

Q) Find out if reported IC50 for COc1cc(-c2ccc3ncc(C(=O)C4CC4)c(Nc4ccc(C(C)(C)N)cc4)c3c2)cc(Cl)c1O is less than 2 µM
A) true (1)

Q) Find out if reported IC50 for CN(C)CCc1ccc(Nc2c(C(=O)C3CC3)cnc3ccc(-c4cc(Cl)c(O)c(Cl)c4)cc23)cc1 is less than 2 µM
A) true (1)
